Biological target: Serine/threonine-protein kinase Sgk1 (Homo sapiens)
Sequence (O00141 whole entry): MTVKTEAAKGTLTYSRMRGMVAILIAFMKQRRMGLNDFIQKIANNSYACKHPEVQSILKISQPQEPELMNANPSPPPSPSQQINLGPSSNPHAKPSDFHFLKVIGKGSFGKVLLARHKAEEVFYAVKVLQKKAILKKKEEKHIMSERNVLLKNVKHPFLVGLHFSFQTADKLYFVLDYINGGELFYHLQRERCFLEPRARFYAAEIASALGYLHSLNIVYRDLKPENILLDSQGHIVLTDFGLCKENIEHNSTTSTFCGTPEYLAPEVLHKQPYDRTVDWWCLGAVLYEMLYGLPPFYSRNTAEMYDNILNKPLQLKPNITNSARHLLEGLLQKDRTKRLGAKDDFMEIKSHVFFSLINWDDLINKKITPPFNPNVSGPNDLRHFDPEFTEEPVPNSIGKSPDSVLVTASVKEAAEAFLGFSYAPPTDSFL
Test: Inhibition of human recombinant SGK1
pIC50: −log10 of the molar value.
assayEndpoint: pIC50

# smiles, assayValue
measured = [
    ("COc1ccc(NC(=O)Cc2nc(-c3ccc([N+](=O)[O-])cc3)cs2)cc1", 4.22),
]
